# assayed_target: Prolactin-releasing peptide receptor PRLHR (Homo sapiens) (UniProt P49683)
# Sequence (P49683 whole entry, looked up): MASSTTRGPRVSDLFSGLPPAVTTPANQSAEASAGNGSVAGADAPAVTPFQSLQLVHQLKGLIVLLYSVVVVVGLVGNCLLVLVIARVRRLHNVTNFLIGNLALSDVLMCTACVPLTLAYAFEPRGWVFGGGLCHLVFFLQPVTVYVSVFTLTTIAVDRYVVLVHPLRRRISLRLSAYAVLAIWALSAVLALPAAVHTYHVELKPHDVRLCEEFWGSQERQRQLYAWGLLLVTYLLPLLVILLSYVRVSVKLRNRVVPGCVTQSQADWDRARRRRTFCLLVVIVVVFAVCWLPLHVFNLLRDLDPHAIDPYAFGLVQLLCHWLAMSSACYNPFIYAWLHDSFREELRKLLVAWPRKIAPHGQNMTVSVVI
quantity: Ki

Qu. Record lookup: for Prolactin-releasing peptide receptor PRLHR (Homo sapiens) (UniProt P49683), what Ki belongs to N=C(N)NCCC[C@@H](NC(=O)C=C(c1ccccc1)c1ccccc1)C(=O)N[C@H](Cc1ccccc1)C(N)=O ?
Ans. > 50 µM

----------
# assayed_target: Prolactin-releasing peptide receptor PRLHR (Homo sapiens) (UniProt P49683)
# assay_explanation: Displacement of [3H]-PrRP-20 from human PrRP receptor expressed in CHO cells by TopCount scintillation counting method
quantity: Ki (nM)
Answer in nM, number only, no unit symbol.

Qu. I'd like to know its Ki. The substance in question is H-TPDINPAWYASRGIRPVGRF-NH2
Ans. 2.1

The values you see were collected from BindingDB's records for doi:10.1021/acs.jmedchem.1c00256.
